# Tested on: D54 ERlucT glycosylation luciferase reporter, luminescence, 24 h
# method.summary: N-linked glycosylation inhibitors, luciferase reporter, dose response, D54 ERlucT cells, luminescence, cherry-picks (AID 624491);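 note: signal gain reflects blocked N-linked glycosylation of a luciferase reporter; actives raise luciferase signal so AC26 marks activators of the reporter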
result.type: AC26

In [3]: df
Out[3]:
                                   molecule                         system_under_test  result_type  experimental_value
0  C/C(=N\NC(=O)c1c(Cl)c(C)nn1C)c1ccc(NC(=O)C2CCC2)cc1  D54 ERlucT glycosylation luciferase reporter, luminescence, 24 h         AC26             3.55 nM
1  Cc1ccc(S(=O)(=O)N2CCN(C(=O)COC(=O)c3cc([N+](=O)[O-])ccc3NCCO)CC2)c(C)c1  D54 ERlucT glycosylation luciferase reporter, luminescence, 24 h         AC26             2430 nM
2  CCn1c2ccccc2c2cc(NC(=O)COC(=O)c3ccccc3F)ccc21  D54 ERlucT glycosylation luciferase reporter, luminescence, 24 h         AC26             4200 nM
3  CC(=O)c1cccc(-c2ccnc3c2CC(C(=O)NCc2ccccc2)O3)c1 (stereo not given)  D54 ERlucT glycosylation luciferase reporter, luminescence, 24 h         AC26              657 nM
4  COc1cc(-c2cc3nc(NCCOc4ccccc4)ccn3n2)cc(OC)c1OC  D54 ERlucT glycosylation luciferase reporter, luminescence, 24 h         AC26             2350 nM

---

# System: D54 ERlucT glycosylation luciferase reporter, luminescence, 24 h
# method.summary: N-linked glycosylation inhibitors, luciferase reporter, dose response, D54 ERlucT cells, luminescence, cherry-picks (AID 624491)
result.type: AC26

In [3]: df
Out[3]:
                                   compound  experimental_value
0  COc1cccc(C2=CC(c3cccc(OC)c3OC)n3nnnc3N2)c1 (stereo not drawn)             1300 nM
1  CC(C)c1c(C(=O)Nc2ccccc2)c(-c2ccccc2)c(-c2ccc(F)cc2)n1CC[C@@H](O)C[C@@H](O)CC(=O)O             68.2 nM
2  COC(=O)C1=C(c2cc3ccccc3o2)C[C@@H]2CC[C@H]1N2C(=O)N1CCCCC1            14200 nM
3  C[C@H]1CN([C@@H](C)CO)C(=O)Cc2cc(NC(=O)CCC(F)(F)F)ccc2O[C@H]1CN(C)S(=O)(=O)c1ccc(Cl)cc1             2260 nM
4  CN=C(SCC(=O)c1cccc(Cl)c1)c1c(O)n(C)c(=O)n(C)c1=O             2590 nM
5  CC[C@]12c3[nH]c4cc(CCC(=O)N(C)C)ccc4c3CCN1C(=O)[C@@H](CC(=O)NC/C=C(\C)CCC=C(C)C)C[C@@H]2C(=O)N1CCN(C(=O)c2ccco2)CC1             2860 nM
6     OCCCCCN=c1cc(-c2ccccc2)oc2ccc(Cl)cc12             1970 nM
7    O=C(Nc1ncccc1O)c1ccc(C(=O)c2ccccc2)cc1             5180 nM

---

# Tested on: D54 ERlucT glycosylation luciferase reporter, luminescence, 24 h
# method.summary: N-linked glycosylation inhibitors, luciferase reporter, dose response, D54 ERlucT cells, luminescence, cherry-picks (AID 624491);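 note: signal gain reflects blocked N-linked glycosylation of a luciferase reporter; actives raise luciferase signal so AC26 marks activators of the reporter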
result.type: AC26

                                    compound  result_type  experimental_value
 0  O=C1CCCC2=C1C(c1ccco1)Nc1ccc(C(=O)c3ccccc3)cc1N2 (configuration not stated)         AC26            16500 nM
 1  CC(=O)Nc1ccc(CNc2ncnc3ccc(-c4c(C)noc4C)cc23)cc1         AC26              290 nM
 2          Cc1ccc(C(=O)/C=C/c2ccc(Br)cc2)o1         AC26            16600 nM
 3  COc1ccccc1-c1csc(C(NC(C)=O)c2ccc(F)c(F)c2)n1 (configuration not stated)         AC26              341 nM
 4           CCOc1ccccc1C(=O)Nc1ccsc1C(=O)OC         AC26             1300 nM
 5  O=c1[nH]c(=O)n(C2CC(O)C(CO)O2)cc1Br (configuration not stated)         AC26             1490 nM
 6  COc1ccc(C(=O)Nc2ccc3[nH]c(-c4cccc(OC)c4)cc(=O)c3c2)cc1         AC26              330 nM
 7  CN1C(=O)c2cccc3c(S(=O)(=O)Nc4ccccn4)ccc1c23         AC26             5030 nM
 8  COC(=O)c1ccc(C)c(NS(=O)(=O)c2ccc3c(c2)OCCO3)c1         AC26             44.7 nM
 9  CCN(CC)CCOc1c(Br)ccc2c1sc1nc3n(c(=O)c12)CCC3         AC26             3070 nM
10  CCCNC(=O)c1ccccc1NC(=O)c1ccc2c(c1)NC(=O)C(C)S2 (configuration not stated)         AC26             1450 nM
11          O=C(Cn1ncc(Cl)c(Cl)c1=O)N1CCOCC1         AC26             1220 nM
12  COc1ccc(CCn2c(O)c(C=NCc3ccc4c(c3)OCO4)c(=O)[nH]c2=O)cc1OC         AC26             3430 nM
13  CCn1c(=O)cc(SCC(=O)NCCCN2CCN(c3ccc(F)cc3)CC2)c2ccccc21         AC26             9830 nM
14  C/C(=N\NC(=O)c1c([N+](=O)[O-])c(C)nn1C)c1ccc(NC(=O)C2CCCC2)cc1         AC26              498 nM
15                  OCCNc1c2ccccc2nc2ccccc12         AC26              907 nM
16  COc1ccc(C(C)(O)c2nc(-c3ccc(F)cc3OC)cs2)cc1 (configuration not stated)         AC26             5930 nM
17     Nc1ccc2nc(-c3ccccc3)c(-c3ccccc3)nc2c1         AC26             1480 nM
18  COc1cc(/C=C2/CCC/C(=C\c3cc(O)c(OC)c(Cl)c3)C2=O)cc(Cl)c1O         AC26             2230 nM
19  CSc1ncnc2c1ncn2CCCN[C@H](C)c1cccc2ccccc12         AC26              679 nM
20  O=C(NCCN1C(=O)S/C(=C\c2ccccc2F)C1=O)C1=COCCO1         AC26             52.9 nM
21            Cc1ccc(S/C=C\C(=O)c2ccccc2)cc1         AC26             3170 nM

---

# Tested on: D54 ERlucT glycosylation luciferase reporter, luminescence, 24 h
# method.summary: N-linked glycosylation inhibitors, luciferase reporter, dose response, D54 ERlucT cells, luminescence, cherry-picks (AID 624491);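 note: signal gain reflects blocked N-linked glycosylation of a luciferase reporter; actives raise luciferase signal so AC26 marks activators of the reporter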
AC26: recorded values
result.type: AC26

>>> df
                                   compound  experimental_value
0  COc1ccc(-c2ccc(C(c3c(C)[nH][nH]c3=O)c3c(C)[nH][nH]c3=O)o2)c([N+](=O)[O-])c1              224 nM
1  COc1ccc(CC(=O)N(Cc2ccccc2)c2ccc(C)cc2)cc1OC              716 nM
2         O=C(NCCc1ccccc1)c1cc(-c2ccco2)on1             3780 nM
3  COc1cccc(/C=N/NC(=O)c2cc3c(OC)c(OC)ccc3[nH]2)c1OC             5850 nM
4  C=CCn1c(O)c(C(CC)=NC(C)c2ccccc2)c(=O)[nH]c1=O (stereo unspecified)             3140 nM
5  CN(C)S(=O)(=O)c1ccc(N2CCCC2)c(C(=O)Nc2nccs2)c1              549 nM

---

# System: D54 ERlucT glycosylation luciferase reporter, luminescence, 24 h
# method.summary: N-linked glycosylation inhibitors, luciferase reporter, dose response, D54 ERlucT cells, luminescence, cherry-picks (AID 624491);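 note: signal gain reflects blocked N-linked glycosylation of a luciferase reporter; actives raise luciferase signal so AC26 marks activators of the reporter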
As shown below, each of these compounds has a reported AC26 value.
result.type: AC26

>>> df
                                   compound  result_type  experimental_value
0             Cc1cc(C)nc(N2Cc3ccccc3C2=N)n1         AC26             4.56 µM
1  CN1C(=O)C(=Cc2sc(=O)n(-c3ccccc3)c2N(C)C)C(=O)N(C)C1=O         AC26             5.32 µM
2  Cc1cc(C)cc(N2C(=O)NC(=O)/C(=C\C=C\c3ccco3)C2=O)c1         AC26             1.13 µM
3  CCOc1ccc(S(=O)(=O)NCc2cccnc2)cc1NC(=O)c1ccccc1F         AC26             9.74 µM
4    CC(=O)/C=C/c1ccccc1Oc1c(F)c(F)nc(F)c1F         AC26            0.183 µM
5  Cc1cccc(N2C(=O)N3[C@H](c4ccc(F)cc4)[C@@H]4C(=O)N(C5CCCCC5)C(=O)[C@@H]4[C@]3(Cc3ccccc3)C2=O)c1         AC26            0.692 µM
6   C=CCOc1ccccc1C(=O)/C=C1/C(=O)Nc2ccccc21         AC26                3 µM
7  O=C(NCc1ccc(F)c(F)c1)C1Cc2c(-c3ccc4c(c3)OCO4)ccnc2O1 (stereo not given)         AC26             2.75 µM
8  CC(C)C(=O)Nc1ccc(C(=O)N/N=C/c2cc(Br)cc(Br)c2O)cc1         AC26             9.89 µM
9  Cc1ccc(-n2nc(C)c(/C=N/NC(=O)c3cccs3)c2Cl)cc1         AC26             4.23 µM
